- System: HIV-1NL4–3
- method.notes: HIV-1/NL4–3 replication inhibition assay in MT-4 lymphocytes
- Assay type: cell-based
- details: Human immunodeficiency virus 1, Lymphocyte, read-out: PIC50 (experimental)
outcome.measure: IC50

{"columns": ["compound", "target.or.system", "result.value"],
 "data": [
  ["C=C(C)[C@@H]1CC[C@]2(C(=O)N3CCN(C(=O)/C=C/c4ccc(O)c(O)c4)CC3)CC[C@]3(C)[C@H](CC[C@@H]4[C@@]5(C)CC[C@H](OC(=O)CC(C)(C)C(=O)O)C(C)(C)[C@@H]5CC[C@]43C)[C@@H]12 [Compound 10a]", "HIV-1NL4–3", "0.0282 µM"],
  ["C=C(C)[C@@H]1CC[C@]2(C(=O)N3CCN(C(=O)/C=C/c4ccc(OCOC)c(OCOC)c4)CC3)CC[C@]3(C)[C@H](CC[C@@H]4[C@@]5(C)CC[C@H](OC(=O)CC(C)(C)C(=O)O)C(C)(C)[C@@H]5CC[C@]43C)[C@@H]12 [Compound 9r]", "HIV-1NL4–3", "0.0501 µM"]
]}

Hello, the source for this data is paper PMC8176629, in case you need it.
